Molecular target: Dickkopf-related protein 1 (Mus musculus)
Sequence (O54908 whole entry): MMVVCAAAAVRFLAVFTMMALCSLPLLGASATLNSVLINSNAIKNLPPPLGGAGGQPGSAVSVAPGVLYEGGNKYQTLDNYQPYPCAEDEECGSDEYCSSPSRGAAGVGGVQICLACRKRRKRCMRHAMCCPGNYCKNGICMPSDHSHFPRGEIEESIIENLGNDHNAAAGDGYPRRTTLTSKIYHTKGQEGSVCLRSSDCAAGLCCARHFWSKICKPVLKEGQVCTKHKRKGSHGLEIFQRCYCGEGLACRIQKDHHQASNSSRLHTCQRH
Experiment: Inhibition of mouse DKK1 assessed as inhibition of DKK1-alkaline phophatase binding to LRP5 transfected in HEK293 cells
Measured property: IC50
Kindly write the number and append the unit.

q: Could you tell me which IC50 is on file for `CN(C)c1ccc2nc3c(C(=O)O)cc(=O)c(O)c-3oc2c1` ?
a: 3 µM

###

Target: Dickkopf-related protein 1/Low-density lipoprotein receptor-related protein 6 (Homo sapiens) (UniProt O94907+O75581)
Sequence (O75581 20-1613 partner limits assumed): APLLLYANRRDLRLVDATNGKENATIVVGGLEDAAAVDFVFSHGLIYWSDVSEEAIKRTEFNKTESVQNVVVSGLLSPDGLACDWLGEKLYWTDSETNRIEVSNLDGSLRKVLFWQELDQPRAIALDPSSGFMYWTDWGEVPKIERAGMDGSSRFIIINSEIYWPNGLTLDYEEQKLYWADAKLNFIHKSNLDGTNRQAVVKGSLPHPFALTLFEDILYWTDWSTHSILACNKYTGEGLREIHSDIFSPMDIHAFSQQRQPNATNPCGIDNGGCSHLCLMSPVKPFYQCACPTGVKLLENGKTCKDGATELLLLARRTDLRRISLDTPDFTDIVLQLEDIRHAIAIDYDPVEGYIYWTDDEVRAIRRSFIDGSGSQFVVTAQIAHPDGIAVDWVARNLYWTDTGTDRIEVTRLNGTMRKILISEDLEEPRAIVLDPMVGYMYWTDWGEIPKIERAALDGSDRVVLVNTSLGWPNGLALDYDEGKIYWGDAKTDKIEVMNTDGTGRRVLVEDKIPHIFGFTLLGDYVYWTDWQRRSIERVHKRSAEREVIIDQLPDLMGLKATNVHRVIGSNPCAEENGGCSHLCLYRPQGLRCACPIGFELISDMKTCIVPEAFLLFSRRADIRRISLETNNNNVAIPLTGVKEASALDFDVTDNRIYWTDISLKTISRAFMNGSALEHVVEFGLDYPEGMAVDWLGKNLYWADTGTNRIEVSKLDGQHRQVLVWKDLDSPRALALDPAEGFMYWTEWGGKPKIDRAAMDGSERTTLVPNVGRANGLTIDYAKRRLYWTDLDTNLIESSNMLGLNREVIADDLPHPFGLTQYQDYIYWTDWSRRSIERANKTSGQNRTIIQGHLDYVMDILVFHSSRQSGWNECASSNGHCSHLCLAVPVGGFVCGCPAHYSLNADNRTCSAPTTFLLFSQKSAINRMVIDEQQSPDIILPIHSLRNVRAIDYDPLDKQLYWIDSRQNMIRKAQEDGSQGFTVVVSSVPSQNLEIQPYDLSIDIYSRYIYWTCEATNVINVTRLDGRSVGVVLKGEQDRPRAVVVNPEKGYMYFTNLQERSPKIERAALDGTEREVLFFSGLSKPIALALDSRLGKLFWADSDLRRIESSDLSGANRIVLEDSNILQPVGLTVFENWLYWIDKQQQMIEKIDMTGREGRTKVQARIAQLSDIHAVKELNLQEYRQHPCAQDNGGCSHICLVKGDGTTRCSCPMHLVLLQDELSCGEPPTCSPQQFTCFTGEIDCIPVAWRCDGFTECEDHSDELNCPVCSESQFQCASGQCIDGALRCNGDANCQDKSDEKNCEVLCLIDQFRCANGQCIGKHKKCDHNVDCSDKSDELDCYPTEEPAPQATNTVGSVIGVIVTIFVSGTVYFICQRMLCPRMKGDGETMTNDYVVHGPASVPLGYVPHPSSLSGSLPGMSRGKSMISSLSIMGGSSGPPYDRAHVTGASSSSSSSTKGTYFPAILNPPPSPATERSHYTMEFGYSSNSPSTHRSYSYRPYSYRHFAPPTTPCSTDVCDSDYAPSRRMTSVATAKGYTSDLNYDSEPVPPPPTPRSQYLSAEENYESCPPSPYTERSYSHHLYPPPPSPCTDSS
Sequence (O94907 32-266 limits assumed): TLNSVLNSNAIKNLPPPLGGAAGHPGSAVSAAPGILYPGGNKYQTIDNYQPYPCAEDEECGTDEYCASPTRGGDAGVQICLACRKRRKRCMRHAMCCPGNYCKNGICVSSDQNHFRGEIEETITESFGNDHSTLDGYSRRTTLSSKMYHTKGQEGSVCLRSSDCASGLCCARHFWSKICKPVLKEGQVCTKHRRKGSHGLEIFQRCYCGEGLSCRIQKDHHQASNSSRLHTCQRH
Assay: Inhibition of DKK1/LRP6 (unknown origin) expressed in HEK293 cells assessed as inhibition of DKK1/LRP6 interaction at 100 uM after 2 hrs by immunofluorescence method
Format: cell-based
Activity calls are given as the source filed them. The rule behind the calls is not given here.
Measured property: inhibition

Before answering, review these 6 worked examples.
- Compound: "COC(=O)c1cc(=O)c(O)c2oc3cc(N(C)C)ccc3nc1-2"
  Measured property: "inhibition"
  Test value: "Active"
- Compound: "CN(C)c1ccc2nc3c(C(=O)OCc4ccccc4)cc(=O)c(O)c-3oc2c1"
  Measured property: "inhibition"
  Test value: "Active"
- Compound: "Cc1cc(=O)cc2oc3cc(N(C)C)ccc3nc1-2"
  Measured property: "inhibition"
  Test value: "Active"
- Compound: "CCCCOC(=O)c1cc(=O)c(O)c2oc3cc(N(C)C)ccc3nc1-2"
  Measured property: "inhibition"
  Test value: "Active"
- Compound: "CCOC(=O)c1cc(O)c(O)c(O)c1 [ETHYLGALLATE]"
  Measured property: "inhibition"
  Test value: "Active"
- Compound: "CC(C)OC(=O)c1cc(=O)c(O)c2oc3cc(N(C)C)ccc3nc1-2"
  Measured property: "inhibition"
  Test value: "Active"

q: Could you tell me which inhibition is on file for `CCOC(=O)c1cc(=O)c(O)c2oc3cc(N(C)C)ccc3nc1-2` ?
a: Active

q: Could you tell me which inhibition is on file for `CN(C)c1ccc2nc3c(O)cc(=O)cc-3oc2c1` ?
a: Active
